method: Oral bioavailability in Sprague-Dawley rat at 1 mg/kg
Format: ADME, organism-based
condition summary: in vivo
measurement type: bioavailability (%)
Answer with a number only, understood to be in %.

Example molecules with recorded bioavailability:
> print(dat)
                               entry.smiles  measurement.type  recorded.measurement
1  O=C(N[C@H]1CCC[C@H](CO)C1)C1CCN(c2nc3cc(Cl)c(C(F)(F)F)cc3o2)CC1   bioavailability                    42
2  O=C(N[C@H]1CCC[C@H](CO)C1)C1CCN(c2nc3cc(Cl)ccc3o2)CC1   bioavailability                    66
3  O=C(N[C@H]1CCC[C@H](CO)C1)C1CCN(c2nc3cc(Cl)c(-c4ccc(Cl)cc4)cc3o2)CC1   bioavailability                    59
4  CCOc1ccc(-c2cc3oc(N4CCC(C(=O)N[C@H]5CCC[C@H](CO)C5)CC4)nc3cc2Cl)cc1   bioavailability                    17

# evaluate next
Measured bioavailability of `O=C(N[C@H]1CCC[C@H](CO)C1)C1CCN(c2nc3cc(Cl)c(-c4ccc(OC(F)(F)F)cc4)cc3o2)CC1` : 86

---

method: Mean residence time in Sprague-Dawley rat at 1 mg/kg, po
Type: ADME, organism-based
Parameters: dose 1 mg/kg, route oral
condition summary: in vivo
measurement type: MRT (h)
Reply with just the number (in h).

> print(dat)
                               entry.smiles  measurement.unit  recorded.measurement
1  O=C(N[C@H]1CCC[C@H](CO)C1)C1CCN(c2nc3cc(Cl)c(C(F)F)cc3o2)CC1                 h                  0.39
2  CCc1cc2oc(N3CCC(C(=O)N[C@H]4CCC[C@H](CO)C4)CC3)nc2cc1Cl                 h                  0.44
3  O=C(N[C@H]1CCC[C@H](CO)C1)C1CCN(c2nc3cc(Cl)c(-c4ccc(Cl)cc4)cc3o2)CC1                 h                  4.42
4  O=C(N[C@H]1CCC[C@H](CO)C1)C1CCN(c2nc3cc(Cl)ccc3o2)CC1                 h                   0.7
5  O=C(N[C@H]1CCC[C@H](CO)C1)C1CCN(c2nc3cc(Cl)c(-c4ccc(OC(F)(F)F)cc4)cc3o2)CC1                 h                  7.78

The compound identified as `O=C(N[C@H]1CCC[C@H](CO)C1)C1CCN(c2nc3cc(Cl)c(C(F)(F)F)cc3o2)CC1` registered its MRT at 7.22

Data point: `CCOc1ccc(-c2cc3oc(N4CCC(C(=O)N[C@H]5CCC[C@H](CO)C5)CC4)nc3cc2Cl)cc1` ; MRT = 6.26

---

Vd values for the compounds below.
method: Volume of distribution at steady state in Sprague-Dawley rat at 1 mg/kg, iv
Type: ADME, organism-based
Parameters: dose 1 mg/kg, route intravenous
condition summary: in vivo, read-out: Vdss
Entry rule: numbers only, all in L/kg.

Would you please look over these solved cases?
> print(dat)
                               entry.smiles  recorded.measurement
1  O=C(N[C@H]1CCC[C@H](CO)C1)C1CCN(c2nc3cc(Cl)c(C(F)F)cc3o2)CC1                   1.4
2  O=C(N[C@H]1CCC[C@H](CO)C1)C1CCN(c2nc3cc(Cl)c(-c4ccc(OC(F)(F)F)cc4)cc3o2)CC1                   6.4
3  O=C(N[C@H]1CCC[C@H](CO)C1)C1CCN(c2nc3cc(Cl)c(C(F)(F)F)cc3o2)CC1                    14
4  O=C(N[C@H]1CCC[C@H](CO)C1)C1CCN(c2nc3cc(Cl)c(-c4ccc(Cl)cc4)cc3o2)CC1                     3
5  O=C(N[C@H]1CCC[C@H](CO)C1)C1CCN(c2nc3cc(Cl)ccc3o2)CC1                  0.72

The compound `CCOc1ccc(-c2cc3oc(N4CCC(C(=O)N[C@H]5CCC[C@H](CO)C5)CC4)nc3cc2Cl)cc1` showed Vd equal to 2.4

The reported value for `CCc1cc2oc(N3CCC(C(=O)N[C@H]4CCC[C@H](CO)C4)CC3)nc2cc1Cl` in terms of Vd is 2.1

Value source: ChEMBL document CHEMBL2390914
